Provide the reported growth AUC of each item.
System: Bacteroides uniformis
experiment_description: growth AUC relative to DMSO control (median of replicates) (fraction); higher = more growth (less inhibition), active = hit call of the paper
condition_context: 20 µM; 24 h
Just the number, please, no unit attached.

Measured growth AUC of COC1CCC2(CC1)NC(=O)C(c1cc(C)ccc1C)C2O (configuration not stated) : 1.02

Measured growth AUC of COc1ccc(Oc2ccc(NC(=O)N(C)C)cc2)cc1 : 0.948

Measured growth AUC of O=c1cccc2n1CCn1c-2cccc1=O : 1.02

Measured growth AUC of CCNc1nc(NC(C)(C)C)[nH]c(=O)n1 : 0.983

Measured growth AUC of COc1cc(OC)nc(NC(=O)NS(=O)(=O)c2c(-c3nnn(C)n3)cnn2C)n1 : 1

Measured growth AUC of COCCOc1ccccc1S(=O)(=O)NC(=O)Nc1nc(OC)nc(OC)n1 : 1.02

Measured growth AUC of CCC(C)Nc1nc(N)nc(Cl)n1 (configuration not stated) : 0.949

Measured growth AUC of O=C(Nc1ccc(Cl)cc1C(O)c1ccccc1)c1ccncc1 (configuration not stated) : 0.987

Measured growth AUC of CN(C)C=O : 1.05

Measured growth AUC of NS(=O)(=O)[O-].[NH4+] : 1.05

Measured growth AUC of CCCCCCCC(=O)Oc1c(Br)cc(C#N)cc1Br : 0.983

Measured growth AUC of Cc1cc(CC(C)CC(C)(C)C)n(O)c(=O)c1.NCCO (configuration not stated) : 1

Value source: the supplement of paper PMC12669032
